Hey, just so you know, these numbers are from ChEMBL document CHEMBL3885881.

species on record: Rattus norvegicus; experiment: DrugMatrix - Regimen: Daily Repeat; format: toxicity, organism-based, Sprague-Dawley; parameters: regimen Daily Repeat, gender Male, age 6-8 weeks; conditions: in vivo, po, 0 mg/kg, 72 h, tissue Plasma, route oral GAVAGE, dose level Control, time 3 day, vehicle 100 % WATER
Some molecules, each annotated with its measured CHLORIDE.
measured_property: CHLORIDE (MEQ/L)

Nc1ccc(S(=O)(=O)Nc2ccnn2-c2ccccc2)cc1
99.5
COc1cc2c(N3CCN(C(=O)Nc4ccc(OC(C)C)cc4)CC3)ncnc2cc1OCCCN1CCCCC1
104.83
CN1CCC[C@H]1c1cccnc1
100.67
COc1cccc(C2(O)CCCCC2CN(C)C)c1 (stereo not given)
99.33
NCC1(CC(=O)O)CCCCC1
101.33
Fc1ccc([C@@H]2CCNC[C@H]2COc2ccc3c(c2)OCO3)cc1
99.33
Cc1cc(NS(=O)(=O)c2ccc(N)cc2)no1
102.17
Clc1ccc(C(c2ccccc2Cl)C(Cl)Cl)cc1 (stereo not given)
102.5
COc1ccc(C(CN(C)C)C2(O)CCCCC2)cc1 (stereo not given)
102.17
NC(=O)c1ncn([C@@H]2O[C@H](CO)[C@@H](O)[C@H]2O)n1
100.83
CC1(C)S[C@@H]2[C@H](NC(=O)[C@H](N)c3ccc(O)cc3)C(=O)N2[C@H]1C(=O)O
99
NNC(=O)c1ccncc1
103.17
CC1COc2c(N3CCN(C)CC3)c(F)cc3c(=O)c(C(=O)O)cn1c23 (stereo not given)
100.67
CC(C)(S)[C@@H](N)C(=O)O
100.83
CNCCC=C1c2ccccc2CCc2ccccc21
101.17
CN1CCN(C(=O)OC2c3nccnc3C(=O)N2c2ccc(Cl)cn2)CC1 (stereo not given)
103.83
C[C@]12Cc3c[nH]nc3C[C@@H]1CC[C@@H]1[C@@H]2CC[C@@]2(C)[C@H]1CC[C@]2(C)O
99.33
Cn1cnc([N+](=O)[O-])c1Sc1ncnc2nc[nH]c12
98.33
O=C1NC(=O)C(c2ccccc2)(c2ccccc2)N1
101.17
CC(CCc1ccccc1)NCC(O)c1ccc(O)c(C(N)=O)c1 (stereo not given)
99.83
